Measured normalized growth values are reported for all entries that follow.
- protocolText: chemical genetic growth profiling, strain panel (AID 1159580);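 note: tested at 20 µM; growth read once vehicle control cultures reached saturation at 30 °C; 1 = growth at the plate median or of vehicle wells; lower values mean less growth of the strain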
- conditionParameters: S. cerevisiae deletion strains, growth OD, locus YLL026W, hits give low values
Screen size: about 5,500 compounds; about 2,000 (36%) were called active. Roughly 18% stayed inconclusive and do not appear here. The list shows a part of the results.
Quick one: just the number, no unit, thanks!

{"molecule": "C1CNCCN1", "val": 1.01}
{"molecule": "CCCC1O[C@@H]2CC3C4CCC5=CC(=O)C=CC5(C)C4[C@@H](O)CC3(C)[C@]2(C(=O)CO)O1 (stereo partly specified)", "val": 1.01}
{"molecule": "C1CCN2C[C@@H]3C[C@H](CN4CCCC[C@@H]34)[C@H]2C1", "val": 1.01}
{"molecule": "C1CCN2CC3CC(CN4CCCCC34)C2C1 (stereo unspecified)", "val": 1.01}
{"molecule": "O=[N+]([O-])c1cc(O)c(O)c([N+](=O)[O-])c1", "val": 0.999}

We now examine a further molecule.
# query: normalized growth of entry "O=[N+]([O-])c1cc([As](=O)(O)O)ccc1O"
0.97
